Each recorded value in this set is attributed to paper PMC2756588.

# tested target: T1, Hof1, Q05080
# T1 sequence (Q05080 590-669, looked up): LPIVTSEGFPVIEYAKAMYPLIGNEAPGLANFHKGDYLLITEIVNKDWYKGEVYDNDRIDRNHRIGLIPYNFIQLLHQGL
# protocol details: SPOT array
# condition notes: median of control spots 4086
quantity name: SPOT intensity
Lab note: record just the number, no unit beside it.

Examples from the recorded data:
- binder: "RKNRAPPQRPRFNRD"
  SPOT intensity: 8
- binder: "ATNVPVAPPPPPASL"
  SPOT intensity: 0
- binder: "RKNRAPPQRPRFNRE"
  SPOT intensity: 6

SPOT intensity recorded for this binder, `NHSRSLFSLPGNQQS` , is 364

SPOT intensity recorded for this binder, `ISNFVPPNLPMRRFK` , is 5

SPOT intensity recorded for this binder, `KKEKKPPKIPKKVYT` , is 4

SPOT intensity recorded for this binder, `HGKRRAPLLLAKLDV` , is 0

SPOT intensity recorded for this binder, `GRLRPKRIAPWHLIQ` , is 1
